# Tested on: MDA-MB-435 melanoma
# Experimental Details: NCI-60 one-dose screen, 48 h (100 = growth as untreated, 0 = no growth, -100 = all killed)
# Condition Set: 10 µM unless noted
This is part of a sample that, as a whole, favours compounds with a hit. Of some 83,000 tested, about 20% had one in any assay.
Measured Attribute: growth (%)

Compound: CCCCn1cnc(-c2cc(-c3ccccc3)cc(C(F)(F)F)c2)n1
Result Value: 105

Compound: O=C1Cc2c([nH]c3ccc([N+](=O)[O-])cc23)-c2ccccc2N1
Result Value: 16.2

Compound: CCN(CC)c1ccc(C(=N)c2ccc(N(C)C)cc2)cc1
Result Value: 2

Compound: O=C(/C=C/c1ccccc1)n1c(-c2ccccc2)nc2ccccc21
Result Value: 99.9

Compound: O=C(CCc1nc2sc3c(c2c(=O)[nH]1)CCC3)NCc1cn(-c2ccccc2)nc1-c1ccccc1
Result Value: 76.1

Compound: COc1ccc(-c2oc(=O)ccc2-c2cc(OC)c(OC)c(OC)c2)cc1F
Result Value: -2.61

Compound: COc1cc2nccc(Oc3ccc(NC(=O)C4(C(=O)Nc5ccc(F)cc5)CC4)cc3)c2cc1Oc1ccc(N)cn1
Result Value: 3.34

Compound: c1ccc2c(c1)cnc1ccccc12
Result Value: 102

Compound: Oc1ccc(Nc2ncnc3c2sc2ncccc23)cc1
Result Value: 36.5

Compound: Nc1ccc(N(O)/C=C2\C=CC=CC2=O)cc1N
Result Value: 97.7

Compound: Cc1cc(C)c2c(n1)sc1c(Nc3ccc(OCc4ccccc4)cc3)ncnc12
Result Value: 107

Compound: COc1cc(/C=C/C(=O)c2ccc(NC(=O)CSc3nnc(-c4ccc(Cl)cc4)n3-c3ccccc3)cc2)cc(OC)c1OC
Result Value: 64.4

Compound: c1ccc(C2=Nc3ccccc3SC2)cc1
Result Value: 105

Compound: COc1ccc(/C(=C\c2cc(OC)c(OC)c(OC)c2)C(=O)N2CCN(c3ccccc3)CC2)cc1O
Result Value: 98.1

Compound: CCNS(=O)(=O)c1ccc(C)cc1
Result Value: 111

Compound: CCCCCCCCCCCCCCCCCC1=NC(C)(C)CN1C(C)(C)CO
Result Value: -68.7

Compound: CCc1ccc2c(c1)N(CCO)C1=C(C(=O)OC1)C2c1cccc(Cl)c1 (configuration not stated)
Result Value: -57.3

Compound: COC1CC(N)C2OC(c3ccccc3)OCC2O1 (configuration not stated)
Result Value: 102

Compound: C/C(=N\NC(=S)N1CCCCC1)c1ccccn1
Result Value: 14.6

Compound: COc1ccc(-c2nc3ccc(Cc4ccc5nc(-c6ccc(OC)cc6)[nH]c5c4)cc3[nH]2)cc1
Result Value: 35.3

Compound: Cc1ccc(S(=O)(=O)NC(CCC(=O)Nc2ccc(Cl)cc2)C(=O)Nc2ccc(Cl)cc2)cc1 (configuration not stated)
Result Value: 38.4

Compound: O=C(/C=C/c1cn(-c2ccccc2)nc1-c1cccc(Nc2ccnc3cc(Cl)ccc23)c1)c1ccc2c(c1)OCO2
Result Value: 69.6

---

# Tested on: 786-0 renal
# Experimental Details: NCI-60 one-dose screen, 48 h (100 = growth as untreated, 0 = no growth, -100 = all killed)
# Condition Set: 10 µM unless noted
This is part of a sample that, as a whole, favours compounds with a hit. Of some 83,000 tested, about 20% had one in any assay.

Compound: O=C(NC1CC1)c1ccc(-c2nc3ccc4[nH]ncc4c3c3c2CCCC3)cc1
growth [%]: 42.1
//
Compound: CCCCN(CCCC)CCCN=c1nc2c(c(N)n1-c1ccccc1)c(=S)n(-c1ccccc1)c(=S)n2-c1ccccc1
growth [%]: -100
//
Compound: Nc1nc2c(c3ncccc13)C(c1ccccc1)Cc1ncccc1-2 (stereo not drawn)
growth [%]: 104
//
Compound: C=C(CN1CC=CCC1)[C@@H]1CC[C@]2(C(=O)OC)CC[C@]3(C)[C@H](CC[C@@H]4[C@@]5(C)CC[C@H](OC(C)=O)C(C)(C)[C@@H]5CC[C@]43C)[C@@H]12
growth [%]: 109
//
Compound: CCc1ccc(Nc2cc(C)c3ccc(O)cc3n2)cc1
growth [%]: 68.1
//
Compound: Clc1ncnc2scc(C3COc4ccccc4O3)c12 (stereo not drawn)
growth [%]: 104
//
Compound: COc1cc(-c2csc(NC(=O)Nc3cccc(C(F)(F)F)c3)n2)cc(OC)c1OC
growth [%]: 64.2
//
Compound: Cc1n(Cc2ccc3ccccc3n2)cc[n+]1Cc1ccc2ccccc2n1
growth [%]: 97.8
//
Compound: C#CC[C@@H]1C[C@]2(C)[C@H]3CC=C4[C@H]5[C@@H](C)[C@H](C)CC[C@]5(C(=O)NCCCCCCCCN)CC[C@@]4(C)[C@]3(C)CC[C@H]2C(C)(C)[C@H]1OC(C)=O
growth [%]: 80.6
//
Compound: CCCCNCC(O)c1cc2c(Cl)cc(Cl)cc2c2cc(C(F)(F)F)ccc12 (stereo not drawn)
growth [%]: -71.2
//
Compound: CC(CN1CCN(C)CC1)CN1c2ccccc2Sc2ccc(C(F)(F)F)cc21 (stereo not drawn)
growth [%]: 52.2
//
Compound: CCN(CC)CCCC(C)Nc1cnc(C(=O)Nc2cc(C)cc3cccnc23)cn1 (stereo not drawn)
growth [%]: 88.2
//
Compound: c1ccc2c(Cc3csc4ccccc34)csc2c1
growth [%]: 93.8
//
Compound: NS(=O)(=O)c1ccc(N2N=C(c3ccc(Br)cc3)CC2c2cn(-c3ccccc3)nc2-c2ccc(Cl)cc2)cc1 (stereo not drawn)
growth [%]: 97.9
//
Compound: C[C@]12CCc3nc(Nc4ccc(O)cc4)sc3C1=CC[C@@H]1[C@@H]2CC[C@]2(C)/C(=N/NC(N)=S)CC[C@@H]12
growth [%]: -73.6
//
Compound: COC(=O)/C=C/c1cc(OC(C)=O)c2c(c1)[C@@H](C(=O)OC)[C@H](c1ccc(OC(C)=O)c(OC(C)=O)c1)O2
growth [%]: 21.5
//
Compound: CCCCn1cnc(-c2cc(-c3ccccc3)cc(C(F)(F)F)c2)n1
growth [%]: 103
//
Compound: OC(c1cc2c(Cl)cc(Cl)cc2c2cc(C(F)(F)F)ccc12)C1CCCCN1 (stereo not drawn)
growth [%]: -67.6

---

# System: OVCAR-4 ovarian
# Experimental Details: NCI-60 one-dose screen, 48 h (100 = growth as untreated, 0 = no growth, -100 = all killed)
# Condition Set: 10 µM unless noted
This is part of a sample that, as a whole, favours compounds with a hit. Of some 83,000 tested, about 20% had one in any assay.

Compound: CCN(CC)Cc1cc(Nc2nc(NC3CCC(N(C)C)CC3)c3ccccc3n2)ccc1OC (centres undefined)
Experimental Target: OVCAR-4 ovarian
growth / %: 52.1

Compound: CCCCCCCCCCCCCCC(C(=O)OCC)C(=O)OCC
Experimental Target: OVCAR-4 ovarian
growth / %: 109

Compound: C#CC[C@@H]1C[C@]2(C)[C@H]3CC[C@@H]4[C@H]5C(C(=C)C)CC[C@]5(C(=O)NCCCCN)CC[C@@]4(C)[C@]3(C)CC[C@H]2C(C)(C)[C@H]1OC(C)=O (some centres undefined)
Experimental Target: OVCAR-4 ovarian
growth / %: -61.8

Compound: COc1ccc(-c2oc(=O)ccc2-c2cc(OC)c(OC)c(OC)c2)cc1F
Experimental Target: OVCAR-4 ovarian
growth / %: 105

Compound: COc1ccc(C2CC(c3cccc(Nc4ccnc5cc(Cl)ccc45)c3)=NN2c2ccccc2)cc1 (centres undefined)
Experimental Target: OVCAR-4 ovarian
growth / %: 118

Compound: CCc1ccc(Nc2cc(C)c3ccc(O)cc3n2)cc1
Experimental Target: OVCAR-4 ovarian
growth / %: 75.7

Compound: CC1=C(C(=O)Nc2ccc(F)cc2)C(c2ccc(C)cc2)C2=C(CC(C)(C)CC2=O)N1 (centres undefined)
Experimental Target: OVCAR-4 ovarian
growth / %: 90.8

Compound: CC(=O)c1nn(-c2ccccc2)/c(=N\N=C\c2coc3ccc(F)cc3c2=O)s1
Experimental Target: OVCAR-4 ovarian
growth / %: 108

Compound: COc1cc(CN2CCO[C@H](COc3cccc(F)c3)C2)ccc1Cl
Experimental Target: OVCAR-4 ovarian
growth / %: 9.51

---

Reported values of growth for individual entries
# Tested on: A549/ATCC NSCLC
# Experimental Details: NCI-60 one-dose screen, 48 h (100 = growth as untreated, 0 = no growth, -100 = all killed)
# Condition Set: 10 µM unless noted
The panel holds about 83,000 compounds, 20% with a hit somewhere; the sample as a whole holds those more often.

Compound: Cc1ccccc1CNc1ncnc2[nH]ncc12
growth / %: 91
//
Compound: CC(=O)Nc1ccc(Cl)cc1Cl
growth / %: 95.3
//
Compound: CCOC(=O)c1c(NC(=O)c2ccccc2)sc2c(O)c(CN(CC)CC)ccc12
growth / %: 11.4
//
Compound: CN1CCN(Cc2ccc(NC(=O)c3cncc(C#Cc4cnc5cccnn45)c3)cc2C(F)(F)F)CC1
growth / %: 4.87
//
Compound: CCCNC(=S)N/N=C(\C)c1ccccn1
growth / %: 31.7
//
Compound: COc1ccc(/C=C(/C(=O)N2CCN(c3ccccc3)CC2)c2cc(OC)c(OC)c(OC)c2)cc1O
growth / %: 17.4
//
Compound: N=C(N)c1ccc(-c2ccc(-c3cc(Cl)cc(Cl)c3)o2)nc1
growth / %: -68.8
//
Compound: CCCCc1n(Cc2ccc3ccccc3n2)cc[n+]1Cc1ccc2ccccc2n1
growth / %: 44.8
//
Compound: Cc1c(O)c(=O)n(-c2ccccc2)n1C
growth / %: 105
//
Compound: O=C(Cn1nncc1CN1C(=O)CSC1=O)Nc1ccc(F)cc1
growth / %: 102
//
Compound: OC(c1cc2cc(Cl)ccc2c2cc(C(F)(F)F)ccc12)C1CCCCN1 (centres undefined)
growth / %: -85.9
//
Compound: CSCCC1NC(=O)C(C(C)=Nc2ccccc2)=C1O (centres undefined)
growth / %: 101
//
Compound: C#CC[C@@H]1C[C@]2(C)[C@H]3CC[C@@H]4[C@H]5C(C(=C)C)CC[C@]5(C(=O)NCCN(CCN)CCN)CC[C@@]4(C)[C@]3(C)CC[C@H]2C(C)(C)[C@H]1OC(C)=O (some centres undefined)
growth / %: 53.4
//
Compound: Brc1ccccc1Cn1c(-c2cncs2)nc2ccccc21
growth / %: 82.7
//
Compound: O=C1OC(c2ccc(-c3ccccc3)cc2)=C/C1=C/c1c(Cl)cccc1Cl
growth / %: 11
//
Compound: CC(=O)[C@@]1(O)[C@H](C)C[C@H]2[C@@H]3C=C(C)C4=Cc5c(cnn5-c5ccccc5)C[C@]4(C)[C@H]3[C@@H](O)C[C@@]21C
growth / %: 14.5
//
Compound: NC(N)=N/N=C\c1cccc(OCc2ccccc2)c1
growth / %: 87.9
//
Compound: CCN(CC)CCCC(C)N/C(c1cccc(OC)c1)=c1\c(=O)[nH]n(-c2c3ccccc3nc3ccccc23)c(=O)\c1=C(/NC(C)CCCN(CC)CC)c1cccc(OC)c1 (centres undefined)
growth / %: -59.2
//
Compound: CCOC(=O)c1sc2nc(-c3cc4ccccc4o3)cc(-c3ccc(Cl)cc3)c2c1N
growth / %: 123
//
Compound: C/C(=N\NC(=S)N1CCCCC1)c1ccccn1
growth / %: 9.13
//
Compound: ClCc1cccc(CSc2ncnc3c2ncn3Cc2cccc(CCl)c2)c1
growth / %: 88.7
//
Compound: CCCCCCCCCCCCCCCCOc1ccc(S(=O)(=O)N(C)C)cc1[N+](=O)[O-]
growth / %: 98.7
//
Compound: C#CC[C@@H]1C[C@]2(C)[C@H]3CC[C@@H]4[C@H]5C(C(=C)C)CC[C@]5(C(=O)NCCCN5CCN(CCCN)CC5)CC[C@@]4(C)[C@]3(C)CC[C@H]2C(C)(C)[C@H]1OC(C)=O (some centres undefined)
growth / %: -61.9
//
Compound: CC1CN(CCCOC(=O)Nc2ccc(Cl)cc2)CCN1C(C)(C)C (centres undefined)
growth / %: 103
//
Compound: CN1CCN(Cc2ccc(NC(=O)c3cncc(C#Cc4ccc(N)nc4)c3)cc2C(F)(F)F)CC1
growth / %: 16.2
//
Compound: CC(=O)c1ccc(Nc2nc(Cl)nc(Oc3c(Cl)cccc3Cl)n2)cc1
growth / %: 83.8
//
Compound: CCCOC(=O)C1c2cc3c(cc2CC(C)C1C(=O)OCCC)OCO3 (centres undefined)
growth / %: 92.6
//
Compound: SCc1ccc(CS)cc1
growth / %: 110
//
Compound: Nc1ccc(C(OC(=O)c2cc3ccccc3c(Cc3c(O)c(C(=O)OC(c4ccc(N)cc4)(c4ccc(N)cc4)c4ccc(N)cc4)cc4ccccc34)c2O)(c2ccc(N)cc2)c2ccc(N)cc2)cc1
growth / %: 10.7
//
Compound: CC1=C(C(=O)Nc2ccc(F)cc2)C(c2ccccc2)C2=C(CC(C)(C)CC2=O)N1 (centres undefined)
growth / %: 76.7
//
Compound: CC(C)N=C1CCCC1C(=S)SSC(=S)C1CCCC1=NC(C)C (centres undefined)
growth / %: 71.1
//
Compound: COc1cc(C)c2c(=O)c3c(oc2c1)C(=O)c1c(O)c(OC)cc(O)c1C3=O
growth / %: 7.31
//
Compound: N#Cc1c(N)n(C2OC(CO)C(O)C2O)c2ncnc(N)c12 (centres undefined)
growth / %: 1.3
//
Compound: O=C(/C=C/c1cc([N+](=O)[O-])ccc1Cl)c1ccccc1
growth / %: 91.5
//
Compound: COc1ccc(-c2[nH]nc(N)c2-c2cc(OC)c(OC)c(OC)c2)cc1
growth / %: 19.3
//
Compound: COc1ccc(Br)c2ccccc12
growth / %: 104
//
Compound: COc1cccc2nc(Nc3cccc(NC(=O)c4ccc(N5CCN(C)CC5)c(C(F)(F)F)c4)c3)ccc12
growth / %: 25.3
//
Compound: CN(C)c1ccc(N2Cc3ccccc3OC3=C2C(=O)c2c(O)ccc(O)c2C3=O)cn1
growth / %: -19.7
//
Compound: Cc1[nH]nc2ccc3nc(-c4ccc5[nH]ncc5c4)c4c(c3c12)CCCC4
growth / %: 12.6

Numbers sourced from PubChem BioAssay (NCI).
